target: Retinoic acid receptor alpha (Homo sapiens); experiment: ATG_DR5_RAR_CIS: Attagene CIS-FACTORIAL HepG2 Assay for human Retinoic Acid Receptor Alpha (RARE), DR5 submotif (AID 2282934); conditions: HepG2 Attagene cis-factorial RARE DR5 reporter, mRNA; actives raise or lower the signal
The source made the active and inactive calls. How the source made its calls: active means hit-call score of the fitted dose curve at least 0.9, where 1 is the maximum; inactive means score below 0.9.
Select the matching outcome among true for active, false for inactive

What call does the record list for C=CC(C)(C)C ? false

Now consider CCCCC(CC)CCC(CC(C)C)OS(=O)(=O)O (centres undefined) . false

Consider next the molecule O=C(Nc1ccccc1)c1ccccc1O in the same way. false

And then CCOC(=O)c1ccc(N(C)C)cc1 , what is it? false

Note, next up: CC(C)COC(=O)C=Cc1ccccc1 false

Thanks! And O=S(=O)(O)c1cc(S(=O)(=O)O)c2ccc3c(S(=O)(=O)O)cc(S(=O)(=O)O)c4ccc1c2c43 ? false

What about Nc1ccc(Oc2ccc(N)c(N)c2)cc1 ? false

Another molecule to check: CC(CC=O)c1ccccc1 (centres undefined) false

Field entry: O=CC1CC1 false

Also need CCCCCCCC(C)=O , thanks. false

Repeat for the following molecule: COC(=O)c1sccc1S(N)(=O)=O false

Same thing, different molecule: CCCCCCCCCCCCCOP(=O)(O)O false

Moving on to CCC(Cc1ccccc1)(C(=O)c1ccc(N2CCOCC2)cc1)N(C)C (centres undefined) true

Also, COc1ccc(NC(C)=O)cc1N please. false
